protocolDescription: self-splicing fitness, log relative to wild type (ln ratio); higher = more splicing; Tetrahymena group I intron in knt gene, E. coli kanamycin selection, DiMSum; sequences stand for … in CUCUCU…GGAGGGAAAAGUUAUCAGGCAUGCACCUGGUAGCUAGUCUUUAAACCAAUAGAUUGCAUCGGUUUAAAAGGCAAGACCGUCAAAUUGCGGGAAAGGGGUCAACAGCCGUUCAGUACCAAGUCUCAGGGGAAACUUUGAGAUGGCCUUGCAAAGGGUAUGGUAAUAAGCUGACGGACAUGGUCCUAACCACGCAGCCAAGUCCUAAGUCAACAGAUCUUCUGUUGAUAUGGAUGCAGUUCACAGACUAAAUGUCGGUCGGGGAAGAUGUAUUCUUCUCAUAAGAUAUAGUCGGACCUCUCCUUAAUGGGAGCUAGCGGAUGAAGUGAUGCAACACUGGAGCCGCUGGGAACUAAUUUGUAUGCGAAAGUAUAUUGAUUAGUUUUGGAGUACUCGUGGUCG;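 note: selection with 25 µg/mL kanamycin versus none on LB agar overnight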
conditionLabel: 30 °C
assayReadout: self-splicing fitness (ln)

sequenceInput: UCAUAGCAAUAUUACGCGUC
self-splicing fitness (ln): -3.76

sequenceInput: AGACAGCAAUAUUACGCUCA
self-splicing fitness (ln): -0.572

sequenceInput: AGUUAGCAAUAUUACGAUUG
self-splicing fitness (ln): -3.3

**Q:** Kindly indicate its recorded self-splicing fitness (ln). Item: `CGAUAGCAAUAUUACGUUAG`
**A:** -0.734

**Q:** For the sequence `ACGUAGCAAUAUUACGAGCA` , give its reported self-splicing fitness (ln).
**A:** -0.664

**Q:** Fill in reported self-splicing fitness (ln) for this entry: `AUUAAGCAAUAUUACGUGUA`
**A:** -2.57

**Q:** Fill in self-splicing fitness (ln) for record `CACGAGCAAUAUUACGAUAC`
**A:** -3.07

**Q:** Item `AUUUAGCAAUAUUACGAUUU` : provide self-splicing fitness (ln)
**A:** -0.123

**Q:** // Input: `AACGAGCAAUAUUACGCAUC` . Output its self-splicing fitness (ln) only.
**A:** -3.65

**Q:** Entry `CAUGAGCAAUAUUACGUAAC` needs its self-splicing fitness (ln) filled in; supply it.
**A:** -3.38

**Q:** # return recorded self-splicing fitness (ln) for input `UGCAAGCAAUAUUACGCUCU`
**A:** -0.965

**Q:** Using the record for `UACUAGCAAUAUUACGCAGA` , state its measured self-splicing fitness (ln).
**A:** -3.67

**Q:** Name the recorded self-splicing fitness (ln) of the sequence listed here: `CCAAAGCAAUAUUACGAAUG`
**A:** -1.03

**Q:** Answer with the recorded self-splicing fitness (ln) of `AUCUAGCAAUAUUACGCCAG` only.
**A:** -2.77

**Q:** Answer with reported self-splicing fitness (ln) of `GCCGAGCAAUAUUACGGGAU`
**A:** -2.03

**Q:** Quickly give me recorded self-splicing fitness (ln) for `CAUCAGCAAUAUUACGUGAG`
**A:** -0.345

**Q:** Return reported self-splicing fitness (ln). Input sequence: `UGUAAGCAAUAUUACGUUGU`
**A:** -3.79

**Q:** Complete the entry with self-splicing fitness (ln) for `GAGGAGCAAUAUUACGGUCA`
**A:** -2.76

---

protocolDescription: self-splicing fitness, log relative to wild type (ln ratio); higher = more splicing; Tetrahymena group I intron in knt gene, E. coli kanamycin selection, DiMSum; sequences stand for … in CUCUCU…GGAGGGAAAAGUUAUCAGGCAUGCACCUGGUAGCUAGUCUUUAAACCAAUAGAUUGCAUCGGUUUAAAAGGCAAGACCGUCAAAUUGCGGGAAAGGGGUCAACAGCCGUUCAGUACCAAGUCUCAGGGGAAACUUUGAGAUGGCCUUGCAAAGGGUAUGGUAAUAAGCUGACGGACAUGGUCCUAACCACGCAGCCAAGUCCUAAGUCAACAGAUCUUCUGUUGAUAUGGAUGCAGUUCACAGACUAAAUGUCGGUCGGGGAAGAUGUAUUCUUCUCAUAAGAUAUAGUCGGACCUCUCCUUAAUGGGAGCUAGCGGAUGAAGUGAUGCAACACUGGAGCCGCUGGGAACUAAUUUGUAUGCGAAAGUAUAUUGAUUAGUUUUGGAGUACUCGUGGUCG
conditionLabel: 37 °C
The following sequences are listed with their measured self-splicing fitness (ln) values.
Keep the answer to the number alone.

sequenceInput: UAUCAGCAAUAUUACGAAAG
self-splicing fitness (ln): -1.21
--
sequenceInput: GUCUAGCAAUAUUACGGUCA
self-splicing fitness (ln): -0.44
--
sequenceInput: CUAAAGCAAUAUUACGAGGC
self-splicing fitness (ln): -1.92
--
sequenceInput: UAUAAGCAAUAUUACGGAUC
self-splicing fitness (ln): -1.58

**Q:** Quote self-splicing fitness (ln) reported for `CGGAAGCAAUAUUACGAUUG` please.
**A:** -0.25

---

protocolDescription: self-splicing fitness, log relative to wild type (ln ratio); higher = more splicing; Tetrahymena group I intron in knt gene, E. coli kanamycin selection, DiMSum; sequences stand for … in CUCUCU…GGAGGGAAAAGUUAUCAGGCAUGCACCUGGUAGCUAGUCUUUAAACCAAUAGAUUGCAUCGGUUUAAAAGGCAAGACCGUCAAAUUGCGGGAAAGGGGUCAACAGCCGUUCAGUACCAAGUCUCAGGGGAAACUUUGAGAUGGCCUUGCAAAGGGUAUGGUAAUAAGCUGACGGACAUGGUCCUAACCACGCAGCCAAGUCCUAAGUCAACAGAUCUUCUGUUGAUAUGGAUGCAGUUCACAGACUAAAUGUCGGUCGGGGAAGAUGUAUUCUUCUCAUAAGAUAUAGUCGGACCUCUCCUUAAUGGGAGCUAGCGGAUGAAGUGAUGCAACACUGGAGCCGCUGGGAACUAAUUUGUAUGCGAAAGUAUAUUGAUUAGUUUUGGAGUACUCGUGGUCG
conditionLabel: 37 °C
assayReadout: self-splicing fitness (ln)
Lab note: record the figure alone, no unit after it.

sequenceInput: AUCCAGCAAUAUUACGAUAG
self-splicing fitness (ln): -2.84
//
sequenceInput: CGGUAGCAAUAUUACGGAUG
self-splicing fitness (ln): 0.221
//
sequenceInput: GUGCAGCAAUAUUACGAUUA
self-splicing fitness (ln): -0.611
//
sequenceInput: AAACAGCAAUAUUACGCAAU
self-splicing fitness (ln): -1.4
//
sequenceInput: AAUGAGCAAUAUUACGGCUC
self-splicing fitness (ln): -2.03
//
sequenceInput: GUUUAGCAAUAUUACGCAAC
self-splicing fitness (ln): -2.14

**Q:** Specify self-splicing fitness (ln) for `UUCUAGCAAUAUUACGCGAG` and stop.
**A:** -1.45

**Q:** Please give the documented self-splicing fitness (ln) of `AACGAGCAAUAUUACGCAUC`
**A:** -0.331

**Q:** Query self-splicing fitness (ln) for `AGGGAGCAAUAUUACGGAGG`
**A:** -1.74

**Q:** Please report the measured self-splicing fitness (ln) for `CUUCAGCAAUAUUACGACGG`
**A:** -0.57

---

protocolDescription: self-splicing fitness, log relative to wild type (ln ratio); higher = more splicing; Tetrahymena group I intron in knt gene, E. coli kanamycin selection, DiMSum; sequences stand for … in CUCUCU…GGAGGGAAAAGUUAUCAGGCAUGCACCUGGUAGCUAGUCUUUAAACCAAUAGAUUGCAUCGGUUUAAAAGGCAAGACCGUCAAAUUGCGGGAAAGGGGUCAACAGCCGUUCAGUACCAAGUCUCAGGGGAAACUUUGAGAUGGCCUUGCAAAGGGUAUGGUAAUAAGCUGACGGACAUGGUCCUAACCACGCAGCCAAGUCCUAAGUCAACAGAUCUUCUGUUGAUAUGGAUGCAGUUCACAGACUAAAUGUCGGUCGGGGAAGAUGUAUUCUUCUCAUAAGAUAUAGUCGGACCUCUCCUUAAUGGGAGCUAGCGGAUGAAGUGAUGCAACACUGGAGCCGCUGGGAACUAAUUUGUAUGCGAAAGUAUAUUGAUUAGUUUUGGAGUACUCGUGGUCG
conditionLabel: 37 °C
assayReadout: self-splicing fitness (ln)

sequenceInput: GGCUAGCAAUAUUACGUUGA
assayReadout: self-splicing fitness (ln)
experimentalResult: 0.455

sequenceInput: CGAGAGCAAUAUUACGAUGU
assayReadout: self-splicing fitness (ln)
experimentalResult: -1.83

sequenceInput: CAAAAGCAAUAUUACGAUCU
assayReadout: self-splicing fitness (ln)
experimentalResult: -0.593

sequenceInput: AUGAAGCAAUAUUACGUGAC
assayReadout: self-splicing fitness (ln)
experimentalResult: -1.63

sequenceInput: AAGAAGCAAUAUUACGUGUG
assayReadout: self-splicing fitness (ln)
experimentalResult: -0.663

**Q:** Supply recorded self-splicing fitness (ln) for `UAAAAGCAAUAUUACGAUUG` here.
**A:** -0.639

**Q:** Input `AAGCAGCAAUAUUACGGAAU` , output reported self-splicing fitness (ln).
**A:** -1.66

**Q:** Supply self-splicing fitness (ln) value. Item: `GAGGAGCAAUAUUACGACAG`
**A:** -1.5
